These measurements were taken from patent US20260193326A1.

Biological target: T1, AAV9
T1 construct: also called adeno-associated virus serotype 9
Test: SPR, AAV on CM5 chip;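 also: surface plasmon resonance with AAV amine-coupled to the chip as ligand, nanobodies injected as analyte over a concentration series, rate constants and affinity fitted from binding curves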
Assignment: determine reported Kd for the given binders.
Report as a plain number; the unit nM is understood.

[Q] Query: Kd; subject: A4-021 (VHH) VHH: VQLQESGGGLVQAGGSLRLSCAASGSTFSINTMGWYRQAPGKQRELVATITRGGNTNYADSVKGRFTISRDNAKNTVYLQMNSLRPEDTAVYYCHVDEVRQSSWTTSNIWGQGTQVTVSS
[A] 1.87

[Q] Query: Kd; subject: A4-047 (VHH) VHH: VQLQESGGGLVQPGGSLRLSCAASGSRFSINTMGWYRQAPGKQRELVATVTRGGSTNYAGSVKGRFTISRDNAKNTVYLQMNSLRPEDTAVYYCHVDEVRQSSWTTSNLWGQGTQVTVSS
[A] 29.1
